- Test system: TNFα production in LPS-stimulated human monocytes
- PROTOCOL_TEXT: Cot Monocyte TNFα Cell Based Assay
- SETUP_CONDITIONS: Homo sapiens, Monocyte, LPS-stimulated human monocytes, TNFα TR-FRET; read-out: EC50 TNF
pEC50: −log10 of the molar value.
Param threshold (7) applies to pEC50; output rule met when value >= threshold, rule not met when value < threshold.

mol=[2H][C@](Nc1cc(Cl)c2ncc(C#N)c(NCC(C)(C)c3ccccn3)c2c1)(c1ccc(F)cc1)c1cn(C2CC2)nn1 assigned_class="rule not met"
mol=Cc1c(C#N)cccc1[C@H](Nc1cc(Cl)c2ncc(C#N)c(NCC(C)(C)C)c2c1)c1cn(C2(C(F)F)CC2)nn1 assigned_class="rule met"
mol=[2H][C@](Nc1cc(Cl)c2ncc(C#N)c(NCC(C)(C)C)c2c1)(c1cccc(C#N)c1)c1cn(C(F)(F)C(N)=O)nn1 assigned_class="rule not met"

###

- Test system: TNFα production in LPS-stimulated human monocytes
- PROTOCOL_TEXT: Cot Monocyte TNFα Cell Based Assay
- SETUP_CONDITIONS: Homo sapiens, Monocyte, LPS-stimulated human monocytes, TNFα TR-FRET; read-out: EC50 TNF
VALUE_KIND: EC50 (nM)

compound=CC[C@@H](Nc1c(C#N)cnc2c(C#N)cc(N[C@@H](c3cccc(C(=O)NC)c3)c3cn(C4CC4)nn3)cc12)c1ccccc1 value_kind=EC50 units_text=nM limit_sign== quantitative_result=78
compound=CCN1CCC(n2cc([C@@H](Nc3cc(Cl)c4ncc(C#N)c(Nc5ccc(F)c(Cl)c5)c4c3)c3ccccc3)nn2)CC1 value_kind=EC50 units_text=nM limit_sign== quantitative_result=62
compound=Cc1c(-c2cncn2C)cccc1[C@H](Nc1cc(Cl)c2ncc(C#N)c(NCC(C)(C)C)c2c1)c1cn(C2(C(F)F)CC2)nn1 value_kind=EC50 units_text=nM limit_sign== quantitative_result=47
compound=Cc1c(-c2cc[nH]n2)cccc1[C@H](Nc1cc(Cl)c2ncc(C#N)c(NCC(C)(C)C)c2c1)c1cn(C2(C(F)(F)F)CC2)nn1 value_kind=EC50 units_text=nM limit_sign== quantitative_result=463
compound=Cc1c(-c2cnco2)cccc1[C@H](Nc1cc(Cl)c2ncc(C#N)c(NCC(C)(C)C)c2c1)c1cn(C2(C(F)F)CC2)nn1 value_kind=EC50 units_text=nM limit_sign== quantitative_result=62
compound=Cc1c(-c2cnn(C)c2)cccc1[C@H](Nc1cc(Cl)c2ncc(C#N)c(NCC(C)(C)C)c2c1)c1cn(C2(C(F)(F)F)CC2)nn1 value_kind=EC50 units_text=nM limit_sign== quantitative_result=166
compound=CC(C)(C)CNc1c(C#N)cnc2c(C#N)cc(N[C@@H](c3ccccc3)c3cn(C4(C(F)(F)F)CC4)nn3)cc12 value_kind=EC50 units_text=nM limit_sign== quantitative_result=237
compound=CC(C)(C)CNc1c(C#N)cnc2c(C#N)cc(N[C@H](c3cn(C4(CF)CC4)nn3)c3ccccc3Cl)cc12 value_kind=EC50 units_text=nM limit_sign== quantitative_result=195
compound=CC(C)(C)CNc1c(C#N)cnc2c(Cl)cc(N[C@@H](c3ccccc3Cl)c3nnn(C4(C)CC4)c3F)cc12 value_kind=EC50 units_text=nM limit_sign=≥ quantitative_result=1000
compound=CC(C)(C)CNc1c(C#N)cnc2c(Cl)cc(N[C@@H](c3ccc(F)cc3)c3cn(C45CC(C4)C5)nn3)cc12 value_kind=EC50 units_text=nM limit_sign== quantitative_result=395
compound=[2H][C@@](Nc1cc(Cl)c2ncc(C#N)c(NCC(C)(C)C)c2c1)(c1cn(C2(c3cccnc3)CC2)nn1)c1ccccc1Cl value_kind=EC50 units_text=nM limit_sign== quantitative_result=86
compound=Cc1c(C#N)cccc1[C@H](Nc1cc(Cl)c2ncc(C#N)c(NCC(C)(C)C)c2c1)c1cn(C23CC(C2)C3)nn1 value_kind=EC50 units_text=nM limit_sign== quantitative_result=31
compound=CC[C@@H](Nc1c(C#N)cnc2c(Br)cc(N[C@@H](c3cccc(C(N)=O)c3)c3cn(C4CC4)nn3)cc12)c1ccccc1 value_kind=EC50 units_text=nM limit_sign== quantitative_result=51
compound="Cn1cc(C(Nc2cc(Cl)c3ncc(C#N)c(Nc4ccc(F)c(Cl)c4)c3c2)c2ccccc2)nn1 (stereo not shown)" value_kind=EC50 units_text=nM limit_sign== quantitative_result=215
compound=Cc1c([C@H](Nc2cc(Cl)c3ncc(C#N)c(NCC(C)(C)C)c3c2)c2cn(C3(C(F)F)CC3)nn2)cccc1-n1ccnc1 value_kind=EC50 units_text=nM limit_sign== quantitative_result=54
compound=[2H]c1c([C@@]([2H])(Nc2cc(C#N)c3ncc(C#N)c(NCC(C)(C)C)c3c2)c2c(F)cccc2Cl)nnn1C1(C)CC1 value_kind=EC50 units_text=nM limit_sign== quantitative_result=637
compound=Cc1c(-c2cn[nH]c2)cccc1[C@H](Nc1cc(Cl)c2ncc(C#N)c(NCC(C)(C)C)c2c1)c1cn(C2(C(F)F)CC2)nn1 value_kind=EC50 units_text=nM limit_sign== quantitative_result=47
compound=Cc1c(-c2ccccn2)cccc1[C@H](Nc1cc(Cl)c2ncc(C#N)c(NCC(C)(C)C)c2c1)c1cn(C2(C(F)(F)F)CC2)nn1 value_kind=EC50 units_text=nM limit_sign== quantitative_result=921
compound=Cc1c(C#N)cccc1[C@H](Nc1cc(C#N)c2ncc(C#N)c(NCC(C)(C)C)c2c1)c1cn(C2(C(F)(F)F)CC2)nn1 value_kind=EC50 units_text=nM limit_sign== quantitative_result=49
compound=CC(C)(C)CNc1c(C#N)cnc2c(Cl)cc(N[C@@H](c3cccc(C4(C#N)CC4)c3)c3cn(C45CC(C4)C5)nn3)cc12 value_kind=EC50 units_text=nM limit_sign== quantitative_result=407
compound=CC(C)(C)CNc1c(C#N)cnc2c(C#N)cc(N[C@H](c3cn(C4(C(N)=O)CCC4)nn3)c3ccccc3Cl)cc12 value_kind=EC50 units_text=nM limit_sign== quantitative_result=106
compound=Cc1c(C#N)cccc1[C@H](Nc1cc(Cl)c2ncc(C#N)c(NCC(C)(C)C)c2c1)c1nnn(C2(C(F)F)CC2)c1F value_kind=EC50 units_text=nM limit_sign== quantitative_result=75
compound=Cc1c(C#N)cccc1[C@H](Nc1cc(C#N)c2ncc(C#N)c(NCC(C)(C)C)c2c1)c1cn(C23CC(C2)C3)nn1 value_kind=EC50 units_text=nM limit_sign== quantitative_result=13
compound=Cc1c([C@H](Nc2cc(C#N)c3ncc(C#N)c(NCC(C)(C)C)c3c2)c2cn(C3(C(F)(F)F)CC3)nn2)cccc1-n1ccnn1 value_kind=EC50 units_text=nM limit_sign== quantitative_result=58
compound=Cc1c(-c2ncco2)cccc1[C@H](Nc1cc(C#N)c2ncc(C#N)c(NCC(C)(C)C)c2c1)c1cn(C2(C(F)F)CC2)nn1 value_kind=EC50 units_text=nM limit_sign== quantitative_result=63
